MEASUREMENT_TARGET: human TGR5 receptor (Homo sapiens)
Sequence (Q8TDU6 1-330): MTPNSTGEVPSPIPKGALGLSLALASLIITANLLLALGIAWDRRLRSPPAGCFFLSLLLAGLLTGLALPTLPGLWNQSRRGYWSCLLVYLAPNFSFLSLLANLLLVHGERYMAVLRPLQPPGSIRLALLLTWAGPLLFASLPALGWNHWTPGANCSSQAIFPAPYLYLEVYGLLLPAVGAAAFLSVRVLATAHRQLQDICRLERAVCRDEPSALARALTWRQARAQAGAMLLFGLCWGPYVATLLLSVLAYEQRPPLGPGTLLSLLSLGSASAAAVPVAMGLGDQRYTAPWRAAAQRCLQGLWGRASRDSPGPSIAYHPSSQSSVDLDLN
EXPERIMENT_NOTES: Human TGR5 cAMP production assay
CONDITION_LABEL: human TGR5, luminescent cAMP assay; coded A-D; read-out: Human TGR5 Lum. cAMP Activity (EC50)
MEASURE_NAME: EC50

Answered examples (2):
{"COMPOUND": "Cc1cnccc1-c1cccc([C@@H](C)NS(=O)(=O)c2ccccc2C(F)(F)F)c1", "EC50": "< 100 nM"}
{"COMPOUND": "CCc1cnccc1-c1cccc(C(C)(C)NS(=O)(=O)c2cccc(C(F)(F)F)c2)c1", "EC50": "< 100 nM"}

Entry Cc1cnccc1-c1cccc(C(C)(C)N(CCCNS(=O)(=O)CCNC(=N)N)S(=O)(=O)c2cccc(Cl)c2C)c1 [Compound 27AC] , EC50 reported as < 100 nM

Short answer for COC(=O)c1cnccc1-c1cccc(C(C)(C)NS(=O)(=O)c2ccccc2C(F)(F)F)c1 : EC50 was < 100 nM
